Source of measurements: paper PMC11602973

Target: T1, AtGRP2-CSD1-90 WT (Arabidopsis thaliana, UniProt Q41188 1-90)
T1 sequence: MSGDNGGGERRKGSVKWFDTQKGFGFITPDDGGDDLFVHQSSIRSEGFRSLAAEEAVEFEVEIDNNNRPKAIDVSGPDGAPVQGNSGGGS
Assay: fluorescence anisotropy; 20 mM sodium phosphate pH 6.5, 50 mM NaCl, 25 C (fluorescence); NMR titrations in the same buffer plus 250 uM PMSF, 3 mM NaN3, 5% D2O, 298 K
Conditions: protein: recombinant; tags: N-terminal Trx(6 aa)-His6-TEV tag, cleaved; label: 5'-rhodamine
MEASURED_PARAMETER: pKd
By convention, pKd is the negative base-10 log of a molar concentration.

Q: Return reported pKd; argument: TTTTTTT (ssDNA) [Rho-T7]
Result: 4.76

Q: Now the same for UUUUUUU (ssRNA) [Rho-U7]
Result: 4.11
